procedure-details: recombinant UMI read abundance after kanamycin selection (control-corrected) (log10(CPM+1)); higher = more efficient recombination; extreme values may be limits of the assay; sequences stand for … in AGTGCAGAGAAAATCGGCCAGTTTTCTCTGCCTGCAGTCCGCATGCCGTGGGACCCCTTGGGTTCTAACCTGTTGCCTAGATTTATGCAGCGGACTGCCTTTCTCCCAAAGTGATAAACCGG…AGGTTGGTTTCACT; site = the 11-nt donor
measure: recombinant UMI read abundance (log10)

Examples from the recorded data:
{"ordered-residues": "CACTTCGCATGGACCGGTTTTCCCGGTAATCCGTATTTGGA (site CACTTTGCTTC)", "recombinant UMI read abundance (log10)": 0.00357}
{"ordered-residues": "CGACTAACATGGACCGGTTTTCCCGGTAATCCGTATTTGGA (site CTACTAACTTC)", "recombinant UMI read abundance (log10)": 0.554}
{"ordered-residues": "ACTGACACATGGACCGGTTTTCCCGGTAATCCGTATTTGAC (site ACTGACACTGT)", "recombinant UMI read abundance (log10)": 2.83}
{"ordered-residues": "ATGATAACATGGACCGGTTTTCCCGGTAATCCGTATTTGCA (site ATGATAACTTG)", "recombinant UMI read abundance (log10)": 2.08}
{"ordered-residues": "CCCCACGCATGGACCGGTTTTCCCGGTAATCCGTATTTGGC (site CCCCACGCTGC)", "recombinant UMI read abundance (log10)": 0.767}

Now look at this entry.
Sure, the documented recombinant UMI read abundance (log10) for TAAAATACATGGACCGGTTTTCCCGGTAATCCGTATTTGCA (site TAGAATACTTG) is 0

* * *

procedure-details: recombinant UMI read abundance after kanamycin selection (control-corrected) (log10(CPM+1)); higher = more efficient recombination; extreme values may be limits of the assay; sequences stand for … in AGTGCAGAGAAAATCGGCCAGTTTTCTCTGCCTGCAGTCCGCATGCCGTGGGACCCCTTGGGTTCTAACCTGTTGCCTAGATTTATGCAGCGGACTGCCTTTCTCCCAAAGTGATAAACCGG…AGGTTGGTTTCACT; site = the 11-nt donor
# reported recombinant UMI read abundance (log10); entries follow
Just the number, please, no unit attached.

{"ordered-residues": "CCGCCGACATGGACCGGTTTTCCCGGTAATCCGTATTTGTT (site CCGCCGACTAA)", "recombinant UMI read abundance (log10)": 0.275}
{"ordered-residues": "TTGTAGGCATGGACCGGTTTTCCCGGTAATCCGTATTTGGC (site ATGTAGGCTGC)", "recombinant UMI read abundance (log10)": 0}
{"ordered-residues": "TGTGAATCATGGACCGGTTTTCCCGGTAATCCGTATTTGTC (site TGTGAATCTGA)", "recombinant UMI read abundance (log10)": 0.782}
{"ordered-residues": "CTCAATCCATGGACCGGTTTTCCCGGTAATCCGTATTTGTT (site CGGAATCCTAA)", "recombinant UMI read abundance (log10)": 0}
{"ordered-residues": "ACACTTACATGGACCGGTTTTCCCGGTAATCCGTATTTGTT (site ACACTTACTAA)", "recombinant UMI read abundance (log10)": 0.147}
{"ordered-residues": "GCCAATTCATGGACCGGTTTTCCCGGTAATCCGTATTTGGG (site GCCAATTCTCC)", "recombinant UMI read abundance (log10)": 0.183}

Sure, the documented recombinant UMI read abundance (log10) for TTCGAGACATGGACCGGTTTTCCCGGTAATCCGTATTTGAC (site TTCGAGACTGT) is 1.53

Sure, the documented recombinant UMI read abundance (log10) for GCTACGGCATGGACCGGTTTTCCCGGTAATCCGTATTTGCC (site GCTACAGCTGG) is 0

* * *

procedure-details: recombinant UMI read abundance after kanamycin selection (control-corrected) (log10(CPM+1)); higher = more efficient recombination; extreme values may be limits of the assay; sequences stand for … in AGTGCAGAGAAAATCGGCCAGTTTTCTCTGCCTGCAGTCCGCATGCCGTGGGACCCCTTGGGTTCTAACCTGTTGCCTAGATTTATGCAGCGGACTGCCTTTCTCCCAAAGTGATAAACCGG…AGGTTGGTTTCACT; site = the 11-nt donor
Label Met when recombinant UMI read abundance (log10) >= 0.4; otherwise Not met.

Answered cases to consult:
{"ordered-residues": "CGCCGCTCATGGACCGGTTTTCCCGGTAATCCGTATTTGCC (site CGCCGCTCTGG)", "label": "Met"}
{"ordered-residues": "CAGTCCTCATGGACCGGTTTTCCCGGTAATCCGTATTTGAA (site CAGTCCTCTTT)", "label": "Met"}
{"ordered-residues": "ACTAGAACATGGACCGGTTTTCCCGGTAATCCGTATTTGAG (site ACTAAAACTCT)", "label": "Met"}
{"ordered-residues": "CGAAATCCATGGACCGGTTTTCCCGGTAATCCGTATTTGTT (site CGTAATCCTAA)", "label": "Not met"}
{"ordered-residues": "TGCTGAGCATGGACCGGTTTTCCCGGTAATCCGTATTTGAT (site TGCTGAGCTAT)", "label": "Met"}

Q. Has GTTCAAGCATGGACCGGTTTTCCCGGTAATCCGTATTTGCA (site GTTCAAGCTTG) a recorded recombinant UMI read abundance (log10) greater than or equal to 0.4?
A. Met

Q. Has GACAAATCATGGACCGGTTTTCCCGGTAATCCGTATTTGGT (site GACAAAACTAC) a recorded recombinant UMI read abundance (log10) greater than or equal to 0.4?
A. Not met

Q. Has TATGCGGCATGGACCGGTTTTCCCGGTAATCCGTATTTGCT (site TTTGCGGCTAG) a recorded recombinant UMI read abundance (log10) greater than or equal to 0.4?
A. Not met

* * *

procedure-details: recombinant UMI read abundance after kanamycin selection (control-corrected) (log10(CPM+1)); higher = more efficient recombination; extreme values may be limits of the assay; sequences stand for … in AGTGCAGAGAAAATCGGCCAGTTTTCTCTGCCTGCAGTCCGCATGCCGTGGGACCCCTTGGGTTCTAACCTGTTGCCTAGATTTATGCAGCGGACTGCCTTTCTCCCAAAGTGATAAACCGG…AGGTTGGTTTCACT; site = the 11-nt donor
# reported recombinant UMI read abundance (log10); entries follow

{"ordered-residues": "GATCGAGCATGGACCGGTTTTCCCGGTAATCCGTATTTGCA (site GGTCGAGCTTG)", "meas-value": 1.15}
{"ordered-residues": "AGCCTATCATGGACCGGTTTTCCCGGTAATCCGTATTTGAC (site AGCCTCTCTGT)", "meas-value": 0}
{"ordered-residues": "TCATACTCATGGACCGGTTTTCCCGGTAATCCGTATTTGCA (site TCATACTCTGG)", "meas-value": 0}
{"ordered-residues": "GTAGATACATGGACCGGTTTTCCCGGTAATCCGTATTTGAC (site GTAGTTACTGT)", "meas-value": 0.903}
{"ordered-residues": "ACCCAAGCATGGACCGGTTTTCCCGGTAATCCGTATTTGAG (site AGCCAAGCTCT)", "meas-value": 0.021}
{"ordered-residues": "CAGTTGTCATGGACCGGTTTTCCCGGTAATCCGTATTTGCG (site CAGTTGTCTCG)", "meas-value": 3.14}

Sure, the documented recombinant UMI read abundance (log10) for GGTGCACCATGGACCGGTTTTCCCGGTAATCCGTATTTGCA (site GGGGCACCTTG) is 0

Sure, the documented recombinant UMI read abundance (log10) for AGGATAACATGGACCGGTTTTCCCGGTAATCCGTATTTGGC (site AGGATAACTGC) is 2.73

Sure, the documented recombinant UMI read abundance (log10) for CTAGTAACATGGACCGGTTTTCCCGGTAATCCGTATTTGTC (site CTAGTATCTGT) is 0

* * *

# reported recombinant barcode read abundance (log10); entries follow
procedure-details: recombinant barcode read abundance after kanamycin selection (control-corrected) (log10(CPM+1)); higher = more efficient recombination; sequences stand for … in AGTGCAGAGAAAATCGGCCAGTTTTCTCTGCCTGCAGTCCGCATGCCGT…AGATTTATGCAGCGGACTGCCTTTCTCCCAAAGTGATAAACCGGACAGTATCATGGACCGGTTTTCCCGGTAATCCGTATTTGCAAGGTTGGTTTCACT; site = the 11-nt target
Just the number, please, no unit attached.

Examples from the recorded data:
{"ordered-residues": "AGCAGAGCTTGGGTTCTAACCTGTTGCCG (site AGCAGAGCTCA)", "meas-value": 0.0348}
{"ordered-residues": "TCCCGCCCTTGGGTTCTAACCTGTTGCCT (site TCCCGCCCTAG)", "meas-value": 0.464}
{"ordered-residues": "GCGGCGACTTGGGTTCTAACCTGTTGCCT (site GCTGCGACTAG)", "meas-value": 0.0436}

Sure, the documented recombinant barcode read abundance (log10) for GCGCTAACTTGGGTTCTAACCTGTTGCCT (site GCGCTAACTAG) is 1.05

Sure, the documented recombinant barcode read abundance (log10) for TAGCTCCCTTGGGTTCTAACCTGTTGCCA (site TAGCTCCCTCG) is 0.0851

Sure, the documented recombinant barcode read abundance (log10) for TTAGCGTCTTGGGTTCTAACCTGTTGCCT (site TTAGCGTCTAG) is 1.73

src = the supplement of paper PMC11208160
